Values were extracted from paper doi:10.1101/2024.03.05.583629.

Property: binding signal; scope: individual sequences
SYSTEM_NAME: pT7_6His-AlfaTag-ZIF268 (human, UniProt P18146 335-423)
RUN_DESCRIPTION: PADIT-seq
CONDITION_DESCRIPTION: dsDNA, one strand shown
Note: unit log2FC is implicit; provide only the numeric part.

Solved entries (count: 3):
CTCGAGGATATCAAGATCTGGCCTCGGCGCGTGGGGGGGAACCTCTAGCTAGCCGACTCACTATAGGGATAATCGCCCTGAGCAAAGACC    1.28
CTCGAGGATATCAAGATCTGGCCTCGGCGCGTGGTTTGGAACCTCTAGCTAGCCGACTCACTATAGGGATAATCGCCCTGAGCAAAGACC    0.236
CTCGAGGATATCAAGATCTGGCCTCGGCGCGTGGGATGGAACCTCTAGCTAGCCGACTCACTATAGGGATAATCGCCCTGAGCAAAGACC    2.17

Let us examine a further case.
Incoming: Find the measured binding signal: item `CTCGAGGATATCAAGATCTGGCCTCGGCAGAATAAAAGGAACCTCTAGCTAGCCGACTCACTATAGGGATAATCGCCCTGAGCAAAGACC` , target or system pT7_6His-AlfaTag-ZIF268 (human, UniProt P18146 335-423).
Outgoing: 0.0567

---

SYSTEM_NAME: pT7_6His-AlfaTag-HOXD13 (human, UniProt P35453 263-343)
Sequence (P35453 263-343): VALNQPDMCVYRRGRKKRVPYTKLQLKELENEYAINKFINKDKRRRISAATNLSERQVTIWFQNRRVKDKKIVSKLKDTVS
RUN_DESCRIPTION: PADIT-seq
CONDITION_DESCRIPTION: dsDNA, one strand shown
Property: binding signal; scope: individual sequences
Note: unit log2FC is implicit; provide only the numeric part.

Solved entries (count: 3):
CTCGAGGATATCAAGATCTGGCCTCGGCGCCTTAAAAGGAACCTCTAGCTAGCCGACTCACTATAGGGATAATCGCCCTGAGCAAAGACC    0.578
CTCGAGGATATCAAGATCTGGCCTCGGCGTTTTAATGGGAACCTCTAGCTAGCCGACTCACTATAGGGATAATCGCCCTGAGCAAAGACC    2.46
CTCGAGGATATCAAGATCTGGCCTCGGCATTTTATCTGGAACCTCTAGCTAGCCGACTCACTATAGGGATAATCGCCCTGAGCAAAGACC    0.909

Let us examine a further case.
Incoming: Look at this sequence and give its reported binding signal. `CTCGAGGATATCAAGATCTGGCCTCGGCGTTTTATGGGGAACCTCTAGCTAGCCGACTCACTATAGGGATAATCGCCCTGAGCAAAGACC`
Outgoing: 3.21

---

Property: binding signal; scope: individual sequences
SYSTEM_NAME: pT7_6His-AlfaTag-ZIF268 (human, UniProt P18146 335-423)
RUN_DESCRIPTION: PADIT-seq
CONDITION_DESCRIPTION: dsDNA, one strand shown

Solved entries (count: 10):
CTCGAGGATATCAAGATCTGGCCTCGGCGCGCTGGCGGGAACCTCTAGCTAGCCGACTCACTATAGGGATAATCGCCCTGAGCAAAGACC    0.0489 log2FC
CTCGAGGATATCAAGATCTGGCCTCGGCTTTTTAGTGGGAACCTCTAGCTAGCCGACTCACTATAGGGATAATCGCCCTGAGCAAAGACC    0.00131 log2FC
CTCGAGGATATCAAGATCTGGCCTCGGCGCGTGGTGCGGAACCTCTAGCTAGCCGACTCACTATAGGGATAATCGCCCTGAGCAAAGACC    0.41 log2FC
CTCGAGGATATCAAGATCTGGCCTCGGCGCGACAGCGGGAACCTCTAGCTAGCCGACTCACTATAGGGATAATCGCCCTGAGCAAAGACC    0.028 log2FC
CTCGAGGATATCAAGATCTGGCCTCGGCCGCCCAGACGGAACCTCTAGCTAGCCGACTCACTATAGGGATAATCGCCCTGAGCAAAGACC    0.0722 log2FC
CTCGAGGATATCAAGATCTGGCCTCGGCCCGTGGGCGGGAACCTCTAGCTAGCCGACTCACTATAGGGATAATCGCCCTGAGCAAAGACC    3.06 log2FC
CTCGAGGATATCAAGATCTGGCCTCGGCCGCTTGCGCGGAACCTCTAGCTAGCCGACTCACTATAGGGATAATCGCCCTGAGCAAAGACC    0.0632 log2FC
CTCGAGGATATCAAGATCTGGCCTCGGCCTATGGGCGGGAACCTCTAGCTAGCCGACTCACTATAGGGATAATCGCCCTGAGCAAAGACC    0.0355 log2FC
CTCGAGGATATCAAGATCTGGCCTCGGCCCTGTAAAAGGAACCTCTAGCTAGCCGACTCACTATAGGGATAATCGCCCTGAGCAAAGACC    0.046 log2FC
CTCGAGGATATCAAGATCTGGCCTCGGCCAGATAAAAGGAACCTCTAGCTAGCCGACTCACTATAGGGATAATCGCCCTGAGCAAAGACC    0.0449 log2FC

Incoming: Look at this sequence and give its reported binding signal. `CTCGAGGATATCAAGATCTGGCCTCGGCATTTTATACGGAACCTCTAGCTAGCCGACTCACTATAGGGATAATCGCCCTGAGCAAAGACC`
Outgoing: 0.0469 log2FC

Incoming: // repeat for `CTCGAGGATATCAAGATCTGGCCTCGGCAACCTAAAAGGAACCTCTAGCTAGCCGACTCACTATAGGGATAATCGCCCTGAGCAAAGACC` and report
Outgoing: 0.113 log2FC
